These measurements were taken from PubChem BioAssay AID1645863.

# studySystem: Ubiquitin carboxyl-terminal hydrolase 10 (Homo sapiens)
# testSummary: ubiquitin-specific protease 10 DUB inhibitors, concentration-effect, biochemical, verification of primary screen actives (AID 1645863);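 further: potency values describe inhibition of USP10 cleavage of a fluorogenic ubiquitin substrate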
# assayConditions: USP10 deubiquitinase enzymatic assay
Calls of active or inactive are those of the source. How the calls were made is not given here.
Respond with a class label; see active, inactive

Cc1ccc(NC(=O)Cn2c(=O)n(CC(=O)NCCc3ccccc3)c(=O)c3sccc32)cc1C ... active
Cc1cccc(OCC2=NN3C(=N)/C(=C\c4cc(C)n(-c5cccc(F)c5)c4C)C(=O)N=C3S2)c1 ... inactive
COc1ccc(-c2nc(Cn3nnc(C(=O)Nc4ccc(C)c(C)c4)c3N)c(C)o2)cc1 ... active
Cc1cc(C)cc(NC(=O)Nc2ccccc2OCc2cc(=O)n3c(ncn3C(C)C)n2)c1 ... active
O=C(Nc1ccc2snnc2c1)Nc1ccc(F)cc1F ... inactive
COC(=O)Nc1cccn(Cc2c(Cl)cccc2Cl)c1=O ... inactive
O=C(NC1CCCC1)C1CC(=O)N(c2cccc(-c3noc(-c4cccs4)n3)c2)C1 (stereo unspecified) ... inactive
Cc1ccc(NC(=O)Cc2nnc3c(-c4nc(C5CC5)no4)cccn23)cc1F ... active
O=C(Cc1ccc(-n2c(=O)c3ccccc3n(Cc3cccc([N+](=O)[O-])c3)c2=O)cc1)NC1CCCC1 ... inactive
Cc1ccc(C(=O)Nc2ccc3c(c2)Sc2ncccc2C(=O)N3C(C)C)cc1C ... inactive

Query string: Entry Cn1c(CCNC(=O)c2[nH]nc3c2CCc2ccccc2-3)nc2ccccc21 : call = ?
Result string: active

Query string: Now give it for O=C(Cn1c(=O)n(Cc2ccc3c(c2)OCO3)c(=O)c2cccnc21)Nc1ccc(F)cc1 too.
Result string: inactive

Query string: Now give it for O=C(CSc1oc(-c2ccc(F)cc2)nc1S(=O)(=O)c1ccc(F)cc1)Nc1ccc(F)cc1 too.
Result string: active

Query string: Now give it for COc1ccc(Cl)cc1NC(=O)Cn1c(=O)n(CCCC(=O)NCc2ccc(C)cc2)c(=O)c2sccc21 too.
Result string: active

Query string: Now give it for COc1ccc(NC(=O)c2nnc(C(=O)NCc3ccccc3F)s2)cc1 too.
Result string: inactive

Query string: Now give it for CC(=O)Nc1ccc(NC(=O)c2ccc3c(c2)CC(c2ccccc2)OC3=O)cc1 (stereo unspecified) too.
Result string: active

Query string: Now give it for N#Cc1cn2c(nc1-c1ccc(Cl)cc1)nc1ccccc12 too.
Result string: active

Query string: Now give it for Cc1ccc2c(c1)N=C(c1ccc([N+](=O)[O-])cc1)CO2 too.
Result string: inactive

Query string: Now give it for O=C(COC(=O)c1cccc([N+](=O)[O-])c1)Nc1cccc(Oc2ccccc2)c1 too.
Result string: inactive

Query string: Now give it for Cc1ccccc1-c1noc(-c2cccn(CC(=O)Nc3ccccc3F)c2=O)n1 too.
Result string: inactive

Query string: Now give it for Cc1ccc2[nH]c(=O)c(CN(CC3COCCO3)S(=O)(=O)c3ccc(F)cc3)cc2c1 (stereo unspecified) too.
Result string: inactive

Query string: Now give it for Cc1cc(C(=O)CSc2nc3ccccc3[nH]2)c(C)n1Cc1ccco1 too.
Result string: inactive

Query string: Now give it for CCn1c(CNC(=O)c2cccc(C)c2)nnc1SCC(=O)N1CCc2ccccc21 too.
Result string: inactive

Query string: Now give it for Cc1ccc(CC(=O)Nc2ccc(C)cc2-c2n[nH]c(C3CC3)n2)cc1 too.
Result string: inactive

Query string: Now give it for O=C(CSc1nnc2n(-c3ccccc3)c(=O)c3ccccc3n12)c1ccc(F)cc1 too.
Result string: active

====

# studySystem: Ubiquitin carboxyl-terminal hydrolase 10 (Homo sapiens)
# testSummary: ubiquitin-specific protease 10 DUB inhibitors, concentration-effect, biochemical, verification of primary screen actives (AID 1645863)
# assayConditions: USP10 deubiquitinase enzymatic assay
The source made the active and inactive calls. No rule for the calls is given here.
Measured IC50, listed per entry.

Reference set, count: 3
N#Cc1ccccc1NC(=O)c1cc2c(s1)-c1ccccc1S(=O)(=O)C2 ... 34.6 µM
O=S(=O)(c1ccccc1Cl)N1CCN(c2ccc3nnc(-c4ccco4)n3n2)CC1 ... > 40 µM (inactive)
O=C(Cn1c(=O)n(-c2ccccc2)c(=O)c2ccc(C(=O)NCc3ccc4c(c3)OCO4)cc21)NCCC1=CCCCC1 ... 16.2 µM

Query string: Fill blank: measured IC50 of the compound CC(C)Cc1ccc(-c2cc(-c3ccc(C(F)(F)F)cc3)c(C#N)c(=O)[nH]2)cc1 is ____.
Result string: 9.8 µM

Query string: Now give it for CN(C)c1ccc(S(=O)(=O)N2CCCCC2)cc1NC(=O)COc1ccccc1 too.
Result string: > 40 µM (inactive)

====

# studySystem: Ubiquitin carboxyl-terminal hydrolase 10 (Homo sapiens)
# testSummary: ubiquitin-specific protease 10 DUB inhibitors, concentration-effect, biochemical, verification of primary screen actives (AID 1645863);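 further: potency values describe inhibition of USP10 cleavage of a fluorogenic ubiquitin substrate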
# assayConditions: USP10 deubiquitinase enzymatic assay
Calls of active or inactive are those of the source. How the calls were made is not given here.
Respond with a class label; see active, inactive

O=C(Cn1c(=O)n(CCC(=O)NC2CCCC2)c(=O)c2ccccc21)NCc1ccccc1Cl ... inactive

Query string: Entry CCOc1ccc2c(c1)c(=O)c(C(=O)c1ccccc1)cn2CC(=O)Nc1ccc2c(c1)OCCO2 : call = ?
Result string: active

Query string: Now give it for C=C[C@]1(C)CC[C@]2(C)[C@@H](C1)[C@@H](O)C[C@H]1[C@]3(C)CCC[C@@]12OC3=O too.
Result string: inactive

Query string: Now give it for COc1ccc([N+](=O)[O-])cc1NC(=O)COC(=O)c1ccc2[nH]c3c(c2c1)CCCC3 too.
Result string: active

Query string: Now give it for CCn1c(SCC(=O)c2c(N)n(CC(C)C)c(=O)n(C)c2=O)nnc1-c1ccccc1 too.
Result string: inactive

====

# studySystem: Ubiquitin carboxyl-terminal hydrolase 10 (Homo sapiens) (UniProt Q14694)
# Sequence (Q14694 whole entry, looked up): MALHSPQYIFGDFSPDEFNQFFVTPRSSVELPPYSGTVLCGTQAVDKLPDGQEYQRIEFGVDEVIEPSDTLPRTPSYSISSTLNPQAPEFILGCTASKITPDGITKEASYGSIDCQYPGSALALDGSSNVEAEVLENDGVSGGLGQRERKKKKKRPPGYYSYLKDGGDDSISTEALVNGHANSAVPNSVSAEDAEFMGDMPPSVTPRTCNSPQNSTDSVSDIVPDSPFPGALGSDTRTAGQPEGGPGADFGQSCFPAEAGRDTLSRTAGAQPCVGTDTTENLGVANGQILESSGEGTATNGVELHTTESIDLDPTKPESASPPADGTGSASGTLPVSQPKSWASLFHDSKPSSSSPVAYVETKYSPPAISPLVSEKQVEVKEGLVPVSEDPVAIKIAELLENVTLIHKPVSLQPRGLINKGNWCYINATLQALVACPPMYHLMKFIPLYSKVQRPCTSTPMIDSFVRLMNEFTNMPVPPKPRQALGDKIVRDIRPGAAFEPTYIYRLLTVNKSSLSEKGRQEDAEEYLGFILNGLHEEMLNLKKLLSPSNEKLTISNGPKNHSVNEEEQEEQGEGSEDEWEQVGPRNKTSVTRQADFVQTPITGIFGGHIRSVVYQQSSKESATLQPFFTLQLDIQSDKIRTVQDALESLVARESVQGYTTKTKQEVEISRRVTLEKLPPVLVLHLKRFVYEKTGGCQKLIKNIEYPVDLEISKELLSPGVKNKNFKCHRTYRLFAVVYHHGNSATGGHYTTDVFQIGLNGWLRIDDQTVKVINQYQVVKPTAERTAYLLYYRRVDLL
# testSummary: ubiquitin-specific protease 10 DUB inhibitors, concentration-effect, biochemical, verification of primary screen actives (AID 1645863);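 further: potency values describe inhibition of USP10 cleavage of a fluorogenic ubiquitin substrate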
# assayConditions: USP10 deubiquitinase enzymatic assay
Active and inactive are the calls of the source. The rule behind the calls is not given here.
Respond with a class label; see active, inactive

Please review the entries below; each comes with its answer.
Cc1ccc(C2c3[nH]c4ccccc4c3C[C@H]3C(=O)N(c4ccc(C(=O)NCCc5ccccc5)cc4)C(=O)N23)cc1 (stereo not given in full) ... inactive
O=C(Cn1c(=O)c2sccc2n(CC(=O)OCc2ccccc2)c1=O)NCc1ccccc1Cl ... active
CCCCNC(=O)C1Sc2nnc(-c3ccccc3)n2NC1c1ccccc1 (stereo not given) ... inactive
COc1c2nc3ccccc3oc-2cc(=O)c1OC ... inactive
O=C(/C=C/c1cccc([N+](=O)[O-])c1)N1CCc2ccccc21 ... inactive

Query string: Entry O=c1[nH]c(C2CCN(S(=O)(=O)c3ccc(S(=O)(=O)NC4CC4)cc3)CC2)nc2c1nnn2Cc1c(Cl)cccc1Cl : call = ?
Result string: active

Query string: Now give it for COc1ccc(-c2cc3nc([C@H](C)NC(=O)CC4CCCC4)nn3cn2)cc1 too.
Result string: inactive

Query string: Now give it for CC(=O)N1CCc2cc(S(=O)(=O)NC(Cc3ccccc3)C(=O)Nc3cccc(Cl)c3C)ccc21 (stereo not given) too.
Result string: active

Query string: Now give it for Cc1ccc(NC(=O)COc2ccccc2/C=C2/NC(=O)N(Cc3ccc(F)cc3)C2=O)cc1 too.
Result string: inactive

Query string: Now give it for Brc1ccc(Nc2nc(-c3ccccn3)nc3ccccc23)cc1 too.
Result string: active

Query string: Now give it for O=C(O)c1ccccc1C(=O)Nc1ccc(SC(C(=O)Nc2ccccc2Cl)c2ccccc2)cc1 (stereo not given) too.
Result string: active

Query string: Now give it for CSc1cccc(NC(=O)C2C3C=CC4(O3)C2C(=O)N(CCc2ccccc2)C4C(=O)NC2CCCCC2)c1 (stereo not given) too.
Result string: inactive

Query string: Now give it for O=C(NC1CCCCC1)C(c1ccc(F)cc1)N(C(=O)C1COc2ccccc2O1)c1ccc2c(c1)OCO2 (stereo not given) too.
Result string: inactive

====

# studySystem: UniProt Q14694
# testSummary: ubiquitin-specific protease 10 DUB inhibitors, concentration-effect, biochemical, verification of primary screen actives (AID 1645863);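 further: potency values describe inhibition of USP10 cleavage of a fluorogenic ubiquitin substrate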
# assayConditions: USP10 deubiquitinase enzymatic assay
Activity calls are given as the source filed them. How the calls were made is not given here.
Respond with a class label; see true (1) for active, false (0) for inactive

Please review the entries below; each comes with its answer.
Cc1ccc(Cl)cc1NC(=O)Cn1c(=O)n(CCC(=O)NCc2ccco2)c(=O)c2ccccc21 ... true (1)
COc1ccc(NS(=O)(=O)c2cc(NC(=O)CC(=O)c3ccc([N+](=O)[O-])cc3)ccc2Cl)cc1 ... true (1)
Cc1ccc(Nc2nc(O)c(CC(=O)Nc3ccccc3C)s2)cc1C ... false (0)
CCc1ccc(-n2c(C)cc(/C=C3\C(=N)N4N=CSC4=NC3=O)c2C)cc1 ... false (0)
Cc1ccc(Nc2nc(O)c(CC(=O)Nc3cccc(Cl)c3C)s2)cc1C ... true (1)
O=C1CC(O)C(O)c2cccc(O)c21 (stereo unspecified) ... false (0)

Query string: Entry O=C(Cn1c(=O)n(Cc2ccc3c(c2)OCO3)c(=O)c2ccccc21)NCc1ccco1 : call = ?
Result string: true (1)

Query string: Now give it for O=C(CCc1nnc2n(Cc3ccccc3Cl)c(=O)c3ccccc3n12)NCc1ccccc1 too.
Result string: false (0)

Query string: Now give it for Cc1ccc(NC(=O)c2cc(-c3cccnc3)n[nH]2)cc1F too.
Result string: false (0)
